# target: PfRIPR tail (Plasmodium falciparum)
# procedure text: SPR

[
  {
    "substance": "PfCSS-PfPTRAMP complex",
    "target": "PfRIPR tail (Plasmodium falciparum)",
    "Kd, µM": 3
  }
]

====

# target: PfRIPR (Plasmodium falciparum)
# procedure text: SPR
pKd: −log10 of the molar value.

[
  {
    "substance": "PfCSS-PfPTRAMP complex",
    "pKd": 5.52
  }
]
